test system: SK-MEL-5 melanoma; experiment: NCI tumour cell line growth inhibition, 48 h; in the data active = GI50 below about 0.43 µM; inactive = the rest
Use one of these outcomes when replying: active, inactive

Query :: What is the recorded call for this compound in the test? `COc1cc(C(=O)Nc2cc(OC)c3ccn(C)c3c2)cc2c1C[C@]1(C)CC[C@@H](O)C(C)(C)[C@H]1O2`
Result :: active

Query :: Query: recorded result category for CCN(CC)C1CCC(Nc2c(C(C)=O)cnc3ccc(-c4ccc(O)c(Cl)c4)cc23)CC1 (centres undefined) in this test
Result :: inactive

Query :: Record request — test call for `COc1cc2c(cc1Nc1nc(Nc3cccc(F)c3C(N)=O)c3cc[nH]c3n1)N(C(=O)CN1CCN(C(C)C)CC1)CC2`
Result :: inactive

Query :: Please state the recorded outcome for this compound: `C[C@@H](Oc1ccc(C(=O)NS(=O)(=O)C(C)(C)C)cc1C(F)(F)F)c1ccc(Oc2ccccc2)cn1`
Result :: inactive

====

tested on: NCI-H522 lung; test: NCI tumour cell line growth inhibition, 48 h
What TGI was measured for each of the following?

Query :: // TGI lookup, key: Cn1c(NCC(O)CN2CCCC2)cc(=O)n(C)c1=O (centres undefined)
Result :: > 100 µM

Query :: // returns reported TGI for input `O=C(CCCl)NNC1=NCCCN1`
Result :: > 100 µM

Query :: What measured TGI goes with O=C(O)CC(Sc1ccccc1)c1ccccc1 (centres undefined) ?
Result :: > 100 µM

Query :: Consider the compound CC1C(OC2O[C@@H]3O[C@@]4(C)CC[C@H]5[C@H](C)CC[C@@H](C2C)[C@@]35O4)O[C@@H]2O[C@@]3(C)CC[C@H]4[C@H](C)CC[C@@H]1[C@@]24O3 (some centres undefined) and give its measured TGI.
Result :: > 50 µM

Query :: What does the record list as TGI for `CC(C)(CCCCC(C)(C)[N+](C)(C)C)[N+](C)(C)C` ?
Result :: > 100 µM

Query :: Which TGI value is on record for CC(=O)Nc1ccc(COC(O)CN2CCCCC2)cc1[N+](=O)[O-] (centres undefined) ?
Result :: > 100 µM

Query :: Need TGI, item COc1cccc(N(CN2C(=O)CCC2C(=O)O)C(C)=O)c1 (centres undefined)
Result :: > 100 µM

Query :: Item under review: CCCCCCCCCCCCOC1C(CNC(=O)C2OC3OC(C)(C)OC3C2NC(=O)Nc2ccc(CC(=O)NC(Cc3ccccc3)C(=O)O)cc2)OC2OC(C)(C)OC21 (centres undefined) . Reported TGI?
Result :: > 25 µM

Query :: GET /values?readout=TGI&item= CC1=CC(=O)CC(C)(C)C1/C=C/C(C)=C/C=C/C(C)=C/C=C/C=C(C)/C=C/C=C(C)/C=C/C1=C(C)CC(O)CC1(C)C (centres undefined)
Result :: 72.7 µM

====

system: PC-3 prostate; assay: NCI tumour cell line growth inhibition, 48 h
Recorded Endpoint: TGI

Query :: Would you mind telling me what TGI value was observed for `O=C(O)CCCc1ccc2ccccc2c1` ?
Result :: > 100 µM

Query :: Can you share its TGI? I mean this compound: `O=c1oc2ccc(Br)cc2c(=O)n1-c1ccc(I)cc1F`
Result :: 5.86 µM

Query :: Give its TGI value. Item: `Cc1cc(S(=O)(=O)/N=C(/[N-]S(=O)(=O)c2ccc(Cl)cc2)[n+]2ccc(N(C)C)cc2)c(SCC(=O)O)cc1Cl`
Result :: > 100 µM

Query :: Look up TGI for this compound: O=c1[nH]c(=O)n(C2OC(CO)C(O)C2O)cc1Oc1ccccc1 (stereo unspecified)
Result :: > 100 µM

Query :: Can you look up the measured TGI of `COc1ccc2[nH]c3c(C)c4ccnc(NCCCN(C)CCCNc5ccc6ncn7c8ccccc8c(=O)c5c67)c4c(C)c3c2c1` for me?
Result :: 4.21 µM

Query :: Look up TGI: `COc1cc2c(cc1OC)C1Cc3cc(OC)c(OC)cc3C(C2)N1C`
Result :: > 75 µM

====

Please respond with reported TGI for every item in the list.
system: SN12C renal; experiment: NCI tumour cell line growth inhibition, 48 h
Kindly answer with a numeric value in µM, unit omitted.

Query :: Entry `COc1ccc2[nH]c3c(C)c4ccnc(NCCCN(C)CCCNc5ccc6ncn7c8ccccc8c(=O)c5c67)c4c(C)c3c2c1` has what TGI?
Result :: 3.38

Query :: // TGI lookup, key: `C[C@@H](Oc1ccc(C(=O)NS(=O)(=O)C(C)(C)C)cc1C(F)(F)F)c1ccc(Oc2ccccc2)cn1`
Result :: 18.6

====

system: 786-0 renal; test: NCI tumour cell line growth inhibition, 48 h; in the data active = GI50 below about 0.43 µM; inactive = the rest
Hello, when you answer, please use one of the following outcomes: active, inactive

Query :: How did this test come out for `COc1ccc(-n2ccnc2-c2cc(OC)c(OC)c(OC)c2)cc1` ?
Result :: inactive

Query :: What was the test verdict on `O=C(Nc1ccc(/C=C/c2ccc(NC(=O)c3cc(S(=O)(=O)O)c4cccnc4c3O)cc2S(=O)(=O)O)c(S(=O)(=O)O)c1)c1cc(S(=O)(=O)O)c2cccnc2c1O` ?
Result :: inactive

Query :: Which outcome was assigned to `COc1ccc(Nc2cc(C)nc(NCCCNc3ccnc4cc(Cl)ccc34)n2)cc1` in this test?
Result :: inactive

Query :: Which outcome did this test record for the compound `Oc1cc2ccccc2c(-c2c(O)c(O)cc3ccccc23)c1O` ?
Result :: active

Query :: // outcome(item) with item = `CCCCCCCCn1ccc2cc(NC(=O)Cn3cc(CN4CCCCC4)nn3)ccc21`
Result :: inactive

Query :: Please indicate how the test categorized `COc1ccc(/C=C2\C=C(c3ccccc3)N(CCc3ccccc3)C2=O)cc1OC` .
Result :: inactive

====

test system: XF 498 CNS; test: NCI tumour cell line growth inhibition, 48 h
Would you kindly list TGI for each of these compounds?

Query :: Endpoint output: TGI of O=C(O)C12CCCCC1CCCC2 (stereo not drawn) . Value?
Result :: > 100 µM

Query :: If you can, please state the reported TGI value of `CN1CCN(C)C12C=CC=CC21CC1` .
Result :: > 100 µM

Query :: Query (compound): CC(=O)OC12COC1CC(O)C1(C)C(=O)C(O)C3=C(C)C(O)CC(O)(C(OC(=O)c4ccccc4)C21)C3(C)C (stereo not drawn) ; field requested: TGI
Result :: > 100 µM

Query :: What measured TGI goes with COC(=O)C1=C(C(=O)OC)C2(C)Nc3ccccc3C2=C(c2ccccc2)C1 (stereo not drawn) ?
Result :: 27 µM

Query :: What measured TGI goes with `O=Cc1ccc(CCl)cc1` ?
Result :: 34.6 µM

Query :: What does the data say about its TGI? Entry: NNC(=O)N/N=C1\C(=O)N(c2ccc(Cl)c(Cl)c2)C(=O)C(=O)C1c1nc2ccccc2s1 (stereo not drawn)
Result :: > 100 µM

Query :: Please look up its TGI: CC(=O)NC(Cc1ccsc1)C(=O)O (stereo not drawn)
Result :: > 100 µM

Query :: Which measured TGI value corresponds to `O=C(/C(=C\c1ccc(Cl)cc1)c1ccccc1)c1ccccc1` ?
Result :: 95.5 µM

====

test system: TK-10 renal; test: NCI tumour cell line growth inhibition, 48 h
Recorded Endpoint: TGI (µM)
Just the number please, in µM, no unit attached.

Query :: TGI lookup needed for CCCCCC/C=C1\CCC(CN2CCOCC2)C1=O (configuration not stated) , thanks.
Result :: 26.4

Query :: Any idea what its TGI is? The compound is `Cn1c(/C=C/[N+](=O)[O-])cc2ccccc21`
Result :: 14.9

Query :: Given the entry COc1cc(C2C(Cl)C(=O)N2NC(=O)c2ccc(N)cc2)cc(Br)c1O (configuration not stated) , report its measured TGI.
Result :: 32.5

Query :: Which value of TGI has been reported for CC1OC(OC2C(OC3CCC4(C)C(CCC5(C)C4CC=C4C6CC(C)(C)CCC6(C(=O)O)CCC45C)C3(C)CO)OCC(O)C2O)C(O)C(O)C1O (configuration not stated) in the records?
Result :: 40.8

Query :: I would be grateful if you could share the reported TGI for `Cc1cc(C(C)(C)C)cc(CNC2CCCCC2)c1O` .
Result :: 29.7

Query :: Form field: reported TGI of `COc1ccc(/C=C2\C=C(c3ccccc3)N(CCc3ccccc3)C2=O)cc1OC`
Result :: 4.91

Query :: Give the measured TGI of `Clc1ccc(-c2cc(-c3ccccc3)nc(NCCNc3ccnc4cc(Cl)ccc34)n2)cc1` .
Result :: 3.42

Query :: TGI lookup needed for `CN1C/C=C/CCOc2cccc(c2)-c2ccnc(n2)Nc2cccc(c2)C1` , thanks.
Result :: 0.506

Query :: Tell me the measured TGI of `O=C(NCCNCCCNC(=O)c1cc(-c2ccccc2)nc2ccccc12)c1cccc(OCc2ccccc2)c1OCc1ccccc1` , please.
Result :: 3.17

Query :: So what's the measured TGI for this one? `COc1ccc(/C=C2\CCC/C(=C\c3ccc(O)c(CN4CCCCC4)c3)C2=O)cc1`
Result :: 52.1

Query :: May I ask what TGI has been recorded for CCCCCCCCC(=O)OCC(CS[As](C)C)OC(=O)CCCCCCCC (configuration not stated) ?
Result :: 3.14

Query :: I am curious: what TGI value has been reported for `COc1cc2c(cc1Nc1nc(Nc3cccc(F)c3C(N)=O)c3cc[nH]c3n1)N(C(=O)CN1CCN(C(C)C)CC1)CC2` ?
Result :: 7.55

Query :: Give its TGI value. Item: COC(=O)C1=C(C(=O)OC)C2(C)Nc3ccccc3C2=C(c2ccccc2)C1 (configuration not stated)
Result :: 69.9

Query :: What TGI value was documented for this compound, `CN1CCN(c2ccc3nc(-c4ccc5nc(-c6ccc(O)cc6)[nH]c5c4)[nH]c3c2)CC1` ?
Result :: 1300

Query :: # get_value(readout='TGI', item= `CCN1Cc2nc3sc(C)c(C)c3c(=O)n2C=C1C` )
Result :: 83.4
